experiment: Half life in human plasma; assay type: ADME, cell-free
EXPERIMENTAL READOUT: half-life (min)

compound="CNCC(=O)OCc1cc(F)c(F)cc1N(C)C(=O)OC(C)[n+]1cnn(C[C@](O)(c2cc(F)ccc2F)[C@@H](C)c2nc(-c3ccc(C#N)cc3)cs2)c1.[Cl-] (some centres undefined)" value_observed=6

[1] CNCC(=O)OCc1ccc(Cl)cc1N(C)C(=O)OC(C)[n+]1cnn(C[C@](O)(c2cc(F)ccc2F)[C@@H](C)c2nc(-c3ccc(C#N)cc3)cs2)c1.[Cl-] (some centres undefined)
[2] CNCC(=O)OCc1c(F)cccc1N(C)C(=O)OC(C)[n+]1cnn(C[C@](O)(c2cc(F)ccc2F)[C@@H](C)c2nc(-c3ccc(C#N)cc3)cs2)c1.[Cl-] (some centres undefined)
// query Form field 'greater half-life' accepts 1 or 2 ; which applies? Pick one and reply with its label.
// result 1
(1: 3 min, 2: 2 min)
